experiment.notes: qHTS for Inhibitors of human tyrosyl-DNA phosphodiesterase 1 (TDP1): qHTS in cells in presence of CPT; note: nearly all actives have a fitted effect of over 55% in size
assay.context: chicken DT40 Tdp1-/-;hTDP1 cells + 20 nM CPT, ATP luminescence, 48 h; series mostly up to 46.2 µM
Hit rate of the full screen: of about 420,000 compounds, about 50,000 (12%) were called active. Another 26% or so got no clear call; they are omitted. Calls come from the whole dose curve; as a rule, active = well fitted inhibition curve with a large enough effect; inconclusive = small, poorly fitted or top-dose-only effect; inactive = flat fitted curve, though single readings scatter. The full list was thinned out, with actives kept by preference.
Please state which outcome applies, choosing from 1 = active, -1 = inactive

CCOC(=O)c1c(C)oc2nc(C)nc(Nc3ccc(CC)cc3)c12: -1

Ask | Fill in: this test's call for CC(=O)Nc1cc(-c2ccc(N3CCN(C)CC3)cc2)cn2c(-c3ccc(F)cc3)cnc12 is ___
Reply | 1

Ask | Fill in: this test's call for COc1ccccc1C(=O)Nc1cccc(C(=O)N2CCOCC2)c1 is ___
Reply | -1

Ask | Fill in: this test's call for CC(=O)N1c2ccccc2CC1C(=O)N1CCN(c2ccc(F)cc2)CC1 (stereo unspecified) is ___
Reply | -1

Ask | Fill in: this test's call for CCOC(=O)c1c(C)oc2ccc(N(C(=O)c3ccncc3)S(=O)(=O)c3ccc(CC)cc3)cc12 is ___
Reply | 1

Ask | Fill in: this test's call for CC(=O)c1cccc(-c2cnc3c(NC=O)cc(-c4ccc(N(C)C)cc4)cn23)c1 is ___
Reply | 1

Ask | Fill in: this test's call for CNc1cncc(-c2cccc(C(=O)N3CCOCC3)c2)n1 is ___
Reply | -1

Ask | Fill in: this test's call for COC(=O)c1c(C)oc2ccc(N(C(=O)Oc3ccccc3)S(=O)(=O)c3ccccc3)cc12 is ___
Reply | 1

Ask | Fill in: this test's call for CC(=O)c1cccc(-c2cnc3c(NC=O)cc(-c4ccccc4Oc4ccccc4)cn23)c1 is ___
Reply | 1

Ask | Fill in: this test's call for N#CC(Cc1cc2ccccc2n1S(=O)(=O)c1ccccc1)OCc1ccccc1 (stereo unspecified) is ___
Reply | -1

Ask | Fill in: this test's call for CCS(=O)(=O)Nc1cc(C(=O)N2C[C@@H](C)O[C@@H](C)C2)c2c(c1)nc(-c1ccccc1)n2C is ___
Reply | -1

Ask | Fill in: this test's call for CCn1c(CSc2nc(C)cc(C)n2)nnc1SCC(N)=O is ___
Reply | -1

Ask | Fill in: this test's call for CN(CC(=O)O)S(=O)(=O)c1ccc2oc3ccccc3c2c1 is ___
Reply | -1

Ask | Fill in: this test's call for O=C(CCn1nnnc1CN1CCOCC1)N1CCC(c2ccccc2Cl)C1 (stereo unspecified) is ___
Reply | -1

Ask | Fill in: this test's call for Cc1nc2scc(-c3cccs3)c2c(=O)n1N is ___
Reply | -1

Ask | Fill in: this test's call for Cc1ccc(CSCC(=O)N(C)CC(=O)Nc2ccc(C)cc2)cc1 is ___
Reply | -1

Ask | Fill in: this test's call for CC[C@@H](C)[C@@H](C(=O)N1CCN(C(=O)OC(C)(C)C)CC1)n1cc(CCC(=O)O)nn1 is ___
Reply | -1

Ask | Fill in: this test's call for CCc1cc2c(cc3c(=O)n(CC(=O)N4CCN(c5cc(Cl)ccc5C)CC4)ncn32)s1 is ___
Reply | -1

Ask | Fill in: this test's call for CN(C)C(=O)c1cccc(-c2cnc3c(NC=O)cc(-c4ccc(C(=O)N5CCOCC5)cc4)cn23)c1 is ___
Reply | 1

Ask | Fill in: this test's call for CCOC(=O)c1c(C)oc2cc(Br)c(OCC(N)=O)cc12 is ___
Reply | -1

Ask | Fill in: this test's call for S=C(Nc1ccc2c(c1)OCO2)N1CCCC1 is ___
Reply | -1
